Protocol: qHTS Assay for Lipid Storage Modulators in Drosophila S3 Cells
Run parameters: BODIPY lipid droplet fluorescence, 18-24 h, cells fed with added oleic acid; series mostly up to 46.1 µM
The whole screen tested about 320,000 compounds, of which about 2,100 (0.66%) were called active. About 53% were inconclusive and are not listed. Calls come from the whole dose curve; as a rule, active = well fitted inhibition curve with a large enough effect in the signal ratio, with a control signal flat (not every such curve was filed as active); inconclusive = small, poorly fitted or top-dose-only effect, or effect the other way, or a change in a side signal; inactive = flat fitted curve, though single readings scatter; the % refers to the signal ratio. What follows is part of a selection rich in actives, with near analogues and random picks from the rest.
Outcome codes: 1.0 (active), 0.0 (inactive)

| Compound | Group label |
| --- | --- |
| CCCCN(c1ccccc1)c1ncnc2nc[nH]c12 | 0.0 |
| COc1ccc(OC)c(CCNC(=O)Cn2cccc2C(=O)c2ccccc2C)c1 | 0.0 |
| COc1ccc(CCNC(=O)CCCOc2cc(=O)n(C)c3ccccc23)cc1OC | 0.0 |
| O=C1/C(=N\S(=O)(=O)c2cccs2)C([n+]2cccc(Cc3ccccc3)c2)=C([O-])c2ccccc21 | 1.0 |
| O=C(Cn1cccc1C(=O)c1ccccc1)NCCc1ccccc1 | 0.0 |
| NC(=NCCc1ccccc1)NS(=O)(=O)c1ccccc1 | 0.0 |
| O=C1C(=O)c2ccccc2C([O-])=C1[n+]1ccccc1 | 0.0 |
| COc1ccc(CCNC(=O)CN2C(=O)c3ccccc3S2(=O)=O)cc1OC | 1.0 |
| COCCN(C(=O)CCC(=O)Nc1nccs1)C(C(=O)NC(C)(C)C)c1ccc(F)cc1 (centres undefined) | 0.0 |
| CC(C(=O)N1CCc2ccccc21)N1CCN(c2ccccn2)CC1 (centres undefined) | 1.0 |
| O=C(Cc1ccc(Cl)cc1)NNS(=O)(=O)c1ccc([N+](=O)[O-])cc1 | 0.0 |
| CC(C(=O)N1CCc2ccccc21)N1CCN(Cc2ccc(Cl)cc2)CC1 (centres undefined) | 0.0 |
| CC(C(=O)N1CCc2ccccc21)N1CCc2ccccc2C1 (centres undefined) | 0.0 |
| NS(=O)(=O)c1ccc(CCNC(=O)c2ccc3c(c2)OCCO3)cc1 | 0.0 |
| COc1ccc(CCNC(=O)CCCN2C(=O)c3ccccc3C2=O)cc1OC | 0.0 |
| Cc1ccc(CNC(=O)/C=C/C(=O)O)cc1 | 0.0 |
| O=c1[nH]c2ccccc2nc1Cc1ccc(Cl)cc1 | 0.0 |
| CCc1cc[n+](C2=C([O-])c3ccccc3C(=O)/C2=N\S(=O)(=O)c2cccs2)cc1 | 1.0 |
| CCOC(=O)CCc1c(C)nc2cc(-c3ccc(F)cc3)[nH]n2c1=O | 0.0 |
| Clc1ccc(C2=CSC3=Nc4cccc5cccc(c45)N23)cc1 | 1.0 |
| Cc1cc(NC(=O)CSCC(=O)Nc2nc3ccc(F)cc3s2)no1 | 1.0 |
| CCOc1ccc(CCNC(=O)CCn2cccc2)cc1OCC | 0.0 |
| O=C(NC(CCl)c1ccccc1)c1ccc(Cl)cc1 (centres undefined) | 0.0 |
| N#CCCN(C(=O)COc1ccc(C#N)cc1)c1ccc(F)cc1 | 0.0 |
| Cc1ccc(NC(=O)CSc2ccccc2NC(=O)c2ccccc2Cl)cc1Cl | 0.0 |
| O=C(NCCc1ccc(Cl)cc1)c1ccc2c(c1)OCO2 | 0.0 |
| CC(C)CN=C(NS(=O)(=O)c1ccccc1)C(Cl)(Cl)Cl | 1.0 |
| O=C(NNS(=O)(=O)c1ccccc1)c1ccc([N+](=O)[O-])cc1 | 0.0 |
| CC(=O)NS(=O)(=O)c1ccccc1 | 0.0 |
| N/C(=N\S(=O)(=O)c1cccs1)c1ccccc1 | 0.0 |
| O=C(Cc1ccccc1)NNS(=O)(=O)c1ccc([N+](=O)[O-])cc1 | 1.0 |
| N=C1/C(=C\c2ccc(-c3cccc(Cl)c3)o2)C(=O)N=C2SC=C(c3ccccc3)N12 | 0.0 |
| Cc1cc[n+](C2=C([O-])c3ccccc3C(=O)/C2=N\S(=O)(=O)c2cccs2)cc1C | 1.0 |
| O=c1[nH]c2ccccc2nc1Cc1ccccc1 | 0.0 |
| Cc1cc[n+](-c2nc3ccccc3nc2[N-]S(=O)(=O)c2cccs2)cc1C | 0.0 |
| CCC(C)(C)NC(=O)C(c1ccc(F)cc1)N(CCOC)C(=O)CCC(=O)Nc1nccs1 (centres undefined) | 1.0 |
| COc1ccc(CCNC(=O)CCCOc2cccc(C)c2C)cc1OC | 1.0 |
| Cc1cc(C(F)(F)F)nn1CC(=O)NCc1cccs1 | 0.0 |
| COc1ccc(CCNC(=O)CN2C(=O)c3ccccc3S2(=O)=O)cc1 | 0.0 |
| CN(C)c1ncc(S(=O)(=O)c2ccccc2)c(=O)[nH]1 | 0.0 |
| Cc1nn(C)cc1-c1csc(N)n1 | 0.0 |
| CCOc1ccc(CCNC(=O)Cn2cccc2C(=O)c2ccccc2)cc1OCC | 1.0 |
| CC(C)(O)CC[C@@H](O)[C@](C)(O)[C@H]1CC[C@@]2(O)C3=CC(=O)[C@@H]4C[C@@H](O)[C@@H](O)C[C@]4(C)C3CC[C@]12C (some centres undefined) | 0.0 |
| COc1ccc(OC)c(CN2CCN(CCCc3ccccc3)C(CCO)C2)c1 (centres undefined) | 0.0 |

The measured values listed here are drawn from PubChem BioAssay AID2685.
